# target.of.assay: T1, biotinylated hOX40L (R&D Systems, biotinylated in house) (human, UniProt P23510 51-183, biotinylated with Sulfo-NHS-LC-Biotin, sites not stated)
# T1 construct: same bought protein as m10, biotinylated; also called biotinylated OX40L
# T1 sequence: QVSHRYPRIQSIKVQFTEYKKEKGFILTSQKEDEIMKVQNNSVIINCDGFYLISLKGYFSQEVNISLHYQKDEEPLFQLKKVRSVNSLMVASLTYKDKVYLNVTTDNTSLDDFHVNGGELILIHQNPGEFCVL
# assay.name: AlphaScreen, 31 pM biotinylated hOX40L + 80 pM OX40/Fc
pIC50: −log10 of the molar value.
endpoint.label: pIC50

binder	data.value
OX40L15B07 (VHH, monovalent Nanobody from E. coli; not shown: C-terminal c-myc and His6 tag) VHH: EVQLVESGGGLVQAGGSLRLSCAASRSIGRLDRMGWYRHRTGEPRELVATITGGSSINYGDFVKGRFTISIDNAKNTVYLQMNNLKPEDTAVYYCNFNKYVTSRDTWGQGTQVTVSS	9.90
OX40L18E09 (VHH, monovalent Nanobody from E. coli; not shown: C-terminal c-myc and His6 tag) VHH: EVQLVESGGGLVQAGGSLRLSCAASRNILSLNTMGWYRHAPGKPRELVARISSNSKTDYADSVKGRFTISRDNAKNTVLLQMNSLKPEDTGVYYCNLNVWRTSSDYWGQGTQVTVSS	10.39
OX40L01B11 (VHH, monovalent Nanobody from E. coli; not shown: C-terminal c-myc and His6 tag) VHH: EVQLVESGGGLVQAGGSLRLSCVASGRSFSTYIMGWFRQAPGKEREFVATISRSGITTRSADSVKGRFTISRDNAKNTVYLQMNSLKPEDTAVYYCAAGPYVEQTLGLYQTLGPWDYWGQGTQVTVSS	9.56
